target: α2-Receptor (Rattus norvegicus, UniProt P22909); construct: the cortical tissue rapidly dissected; from tissue; host or cells: cortical tissue of male Wistar rats, washed membrane suspension; test: [^3 H]-Clonidine Binding: α2-Receptor; set-up: species or system rat (male Wistar)
Sequence (P22909 whole entry): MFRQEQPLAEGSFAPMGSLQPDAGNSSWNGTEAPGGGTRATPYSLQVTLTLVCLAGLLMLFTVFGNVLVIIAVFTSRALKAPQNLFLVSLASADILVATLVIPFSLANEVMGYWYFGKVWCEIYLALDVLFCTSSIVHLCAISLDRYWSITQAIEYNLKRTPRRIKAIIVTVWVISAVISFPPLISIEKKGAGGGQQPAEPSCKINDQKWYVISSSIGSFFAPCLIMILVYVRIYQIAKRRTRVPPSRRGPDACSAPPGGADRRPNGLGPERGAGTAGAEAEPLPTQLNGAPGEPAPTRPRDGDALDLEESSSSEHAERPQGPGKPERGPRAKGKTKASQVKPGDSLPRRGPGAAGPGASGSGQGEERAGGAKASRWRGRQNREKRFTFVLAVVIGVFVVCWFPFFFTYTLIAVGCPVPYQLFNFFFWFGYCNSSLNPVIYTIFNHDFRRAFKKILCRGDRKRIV
Value type: IC50 (nM)

> print(dat)
                                   compound  endpoint.value
1  Cn1ccc2cc(Nc3ccncc3)ccc21 [1-Methyl-5-(4-pyridinylamino)-1H-indole]              12
